- Test Target: HMG-CoA reductase (Homo sapiens, UniProt P04035)
- Sequence (P04035 1-888): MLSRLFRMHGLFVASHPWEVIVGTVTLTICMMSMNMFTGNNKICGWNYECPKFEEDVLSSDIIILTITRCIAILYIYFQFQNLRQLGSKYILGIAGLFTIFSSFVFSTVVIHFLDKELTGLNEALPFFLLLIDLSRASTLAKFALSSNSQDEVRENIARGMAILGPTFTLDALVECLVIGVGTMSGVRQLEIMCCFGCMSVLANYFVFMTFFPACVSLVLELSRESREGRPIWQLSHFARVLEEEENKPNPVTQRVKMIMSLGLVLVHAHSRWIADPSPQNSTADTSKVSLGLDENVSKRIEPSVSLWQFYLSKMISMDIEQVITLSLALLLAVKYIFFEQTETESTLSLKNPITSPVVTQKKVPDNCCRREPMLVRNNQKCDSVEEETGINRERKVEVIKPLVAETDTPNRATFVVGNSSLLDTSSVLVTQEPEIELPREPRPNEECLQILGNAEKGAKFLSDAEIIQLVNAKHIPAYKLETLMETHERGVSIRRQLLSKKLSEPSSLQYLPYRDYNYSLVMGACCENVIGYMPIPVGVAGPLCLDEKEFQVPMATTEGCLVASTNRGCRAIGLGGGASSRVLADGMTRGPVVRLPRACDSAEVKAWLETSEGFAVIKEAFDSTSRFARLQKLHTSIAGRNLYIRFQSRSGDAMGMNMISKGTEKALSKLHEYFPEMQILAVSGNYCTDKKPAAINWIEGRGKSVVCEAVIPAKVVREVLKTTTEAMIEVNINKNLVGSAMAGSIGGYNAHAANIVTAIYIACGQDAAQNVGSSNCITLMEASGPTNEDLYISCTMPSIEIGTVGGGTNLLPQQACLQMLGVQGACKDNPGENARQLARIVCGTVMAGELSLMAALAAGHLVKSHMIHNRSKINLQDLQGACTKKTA
Attribute Measured: IC50

- C[C@H]1C=CC2=C[C@H](CO)C[C@H](O)[C@@H]2[C@H]1CC[C@@H]1C[C@@H](O)CC(=O)O1 [6′a-hydroxymethyl monacolin J]: 285 µM

Reference source for all entries: paper PMC8541633
